- Tested on: clinical Escherichia coli YT1-30
- Assay Explanation: Minimum inhibitory concentration (MIC), NCCLS method, 30 clinical strains
- Type: cell-based
- Design: unit not given here
- Run Conditions: strain YT21
Where a name gives a salt, the structure may show the parent alone.
Measurement Label: Minimum inhibitory concentration (MIC)
Note: the reply should be a number with no unit written.

Which Minimum inhibitory concentration (MIC) is listed for NCC[C@H](O)C(=O)N[C@@H]1C[C@H](N)[C@@H](O[C@H]2O[C@H](CN)[C@@H](O)[C@H](O)[C@H]2O)[C@H](O)[C@H]1O[C@H]1O[C@H](CO)[C@@H](O)[C@H](N)[C@H]1O ? 2500

Same question for CNC1CCCN(c2c(F)cc3c(=O)c(C(=O)O)cn(C4CC4)c3c2OC)C1 (stereo not shown) please. 15.625

Same question for CC1(C)S[C@@H]2[C@H](NC(=O)[C@H](N)c3ccccc3)C(=O)N2[C@H]1C(=O)O please. 1562.5

Same question for CCC[C@@H]1C[C@@H](C(=O)N[C@@H]([C@H]2O[C@H](SC)[C@H](O)[C@@H](O)[C@H]2O)[C@H](C)Cl)N(C)C1 [Clindamycin hydrochloride] please. 390.625

Same question for CN(C)[C@@H]1C(O)=C(C(N)=O)C(=O)[C@@]2(O)C(O)=C3C(=O)c4c(O)cccc4[C@@](C)(O)[C@H]3C[C@@H]12 please. 1562.5

Same question for CC(C)(O/N=C(\C(=O)N[C@@H]1C(=O)N2C(C(=O)[O-])=C(C[n+]3ccccc3)CS[C@H]12)c1csc(N)n1)C(=O)O please. 0.488

Same question for CC[C@H]1OC(=O)[C@H](C)[C@@H](O[C@H]2C[C@@](C)(OC)[C@@H](O)[C@H](C)O2)[C@H](C)[C@@H](O[C@@H]2O[C@H](C)C[C@H](N(C)C)[C@H]2O)[C@](C)(O)C[C@@H](C)/C(=N\OCOCCOC)[C@H](C)[C@@H](O)[C@]1(C)O please. 625

* * *

- System: clinical Escherichia coli YT1-30
- Assay Explanation: Minimum inhibitory concentration (MIC), NCCLS method, 30 clinical strains
- Format: cell-based
- Set-up: unit not given here
- Run Conditions: strain YT4
Where a name gives a salt, the structure may show the parent alone.
Measurement Label: Minimum inhibitory concentration (MIC)
Note: the reply should be a number with no unit written.

Which Minimum inhibitory concentration (MIC) is listed for CCC[C@@H]1C[C@@H](C(=O)N[C@@H]([C@H]2O[C@H](SC)[C@H](O)[C@@H](O)[C@H]2O)[C@H](C)Cl)N(C)C1 [Clindamycin hydrochloride] ? 1562.5

Same question for NCC[C@H](O)C(=O)N[C@@H]1C[C@H](N)[C@@H](O[C@H]2O[C@H](CN)[C@@H](O)[C@H](O)[C@H]2O)[C@H](O)[C@H]1O[C@H]1O[C@H](CO)[C@@H](O)[C@H](N)[C@H]1O [Amikacin] please. 9.765

Same question for CC(C)(O/N=C(\C(=O)N[C@@H]1C(=O)N2C(C(=O)[O-])=C(C[n+]3ccccc3)CS[C@H]12)c1csc(N)n1)C(=O)O [Ceftazidime] please. 0.488

Same question for CC[C@H]1OC(=O)[C@H](C)[C@@H](O[C@H]2C[C@@](C)(OC)[C@@H](O)[C@H](C)O2)[C@H](C)[C@@H](O[C@@H]2O[C@H](C)C[C@H](N(C)C)[C@H]2O)[C@](C)(O)C[C@@H](C)/C(=N\OCOCCOC)[C@H](C)[C@@H](O)[C@]1(C)O [Roxithromycin] please. 156.25

Same question for CC1(C)S[C@@H]2[C@H](NC(=O)[C@H](N)c3ccccc3)C(=O)N2[C@H]1C(=O)O [Ampicillin] please. 6250

Same question for CN(C)[C@@H]1C(O)=C(C(N)=O)C(=O)[C@@]2(O)C(O)=C3C(=O)c4c(O)cccc4[C@@](C)(O)[C@H]3C[C@@H]12 [Tetracycline] please. 390.625

Same question for CNC1CCCN(c2c(F)cc3c(=O)c(C(=O)O)cn(C4CC4)c3c2OC)C1 (stereo not shown) [Balofloxacin] please. 250
